Numbers sourced from ChEMBL document CHEMBL4806962.

target: Probable G-protein coupled receptor 174 (Homo sapiens); test: Inverse agonist activity at human GPR174 assessed as fold decrease in Gs signalling activity by CRA; format: functional; conditions: filed as inverse agonist
Sequence (Q9BXC1 whole entry): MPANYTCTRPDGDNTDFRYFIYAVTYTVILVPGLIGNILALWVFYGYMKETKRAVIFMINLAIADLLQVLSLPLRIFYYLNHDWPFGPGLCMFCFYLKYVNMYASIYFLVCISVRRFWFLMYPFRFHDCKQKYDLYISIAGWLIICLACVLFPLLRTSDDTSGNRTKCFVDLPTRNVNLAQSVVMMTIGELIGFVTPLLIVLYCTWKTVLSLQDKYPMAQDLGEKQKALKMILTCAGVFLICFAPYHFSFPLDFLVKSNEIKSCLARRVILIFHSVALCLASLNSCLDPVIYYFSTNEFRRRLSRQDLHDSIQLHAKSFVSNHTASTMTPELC
Each record here notes measured fold change (FC).
metric: fold change (FC)

[[record]]
compound = "O=C1CCCC2=C1C(c1ccc(-c3ccccc3)cc1)C1=C(N2)c2ccccc2C1=O (stereo not given)"
metric = "fold change (FC)"
test_value = 2.5

[[record]]
compound = "CC(C)c1ccc(C2C3=C(CCCC3=O)NC3=C2C(=O)c2ccccc23)cc1 (stereo not given)"
metric = "fold change (FC)"
test_value = 1.2

[[record]]
compound = "CCOC(=O)N1CCN(c2cc(N3CCC(C)CC3)c(F)cc2[N+](=O)[O-])CC1"
metric = "fold change (FC)"
test_value = 0.4

[[record]]
compound = "CC(C)Oc1ccc(C2C3=C(CCCC3=O)NC3=C2C(=O)c2ccccc23)cc1 (stereo not given)"
metric = "fold change (FC)"
test_value = 0.6

[[record]]
compound = "Cc1ccc(S(=O)(=O)N2CCN(c3cc(N4CCCCC4)c(F)cc3[N+](=O)[O-])CC2)cc1"
metric = "fold change (FC)"
test_value = 1.7

